assay: recombinant UMI read abundance after kanamycin selection (control-corrected) (log10(CPM+1)); higher = more efficient recombination; extreme values may be limits of the assay; sequences stand for … in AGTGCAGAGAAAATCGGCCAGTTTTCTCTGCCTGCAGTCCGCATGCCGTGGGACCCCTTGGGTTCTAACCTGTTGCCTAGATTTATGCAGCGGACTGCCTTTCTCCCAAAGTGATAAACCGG…AGGTTGGTTTCACT; site = the 11-nt donor
Label rule met when recombinant UMI read abundance (log10) is at or above 0.01; anything below gets rule not met.

Residue Codes: CTATGCACATGGACCGGTTTTCCCGGTAATCCGTATTTGTA (site CTATGCACTTA)
Assigned Label: rule met
//
Residue Codes: GACAATCCATGGACCGGTTTTCCCGGTAATCCGTATTTGGT (site GACAAACCTAC)
Assigned Label: rule not met
//
Residue Codes: CAAGCATCATGGACCGGTTTTCCCGGTAATCCGTATTTGCT (site CAAGCATCTAG)
Assigned Label: rule met
//
Residue Codes: CTAGTATCATGGACCGGTTTTCCCGGTAATCCGTATTTGAG (site CTAGTATCTTT)
Assigned Label: rule met
//
Residue Codes: GAATATCCATGGACCGGTTTTCCCGGTAATCCGTATTTGCT (site GATTATCCTAG)
Assigned Label: rule not met
//
Residue Codes: GTTGATCCATGGACCGGTTTTCCCGGTAATCCGTATTTGGT (site GTTGGTCCTAC)
Assigned Label: rule met
//
Residue Codes: TGGCTAGCATGGACCGGTTTTCCCGGTAATCCGTATTTGAA (site TCGCTAGCTTT)
Assigned Label: rule met
//
Residue Codes: CGAAATCCATGGACCGGTTTTCCCGGTAATCCGTATTTGTA (site CGAAATCCTTA)
Assigned Label: rule met
//
Residue Codes: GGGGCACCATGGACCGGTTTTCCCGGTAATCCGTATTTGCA (site CGGGCACCTTG)
Assigned Label: rule not met
//
Residue Codes: GGCCCTGCATGGACCGGTTTTCCCGGTAATCCGTATTTGTA (site GGCCCTGCTTA)
Assigned Label: rule met

----------
Here the recorded recombinant barcode read abundance (log10) is given for each entry.
assay: recombinant barcode read abundance after kanamycin selection (control-corrected) (log10(CPM+1)); higher = more efficient recombination; sequences stand for … in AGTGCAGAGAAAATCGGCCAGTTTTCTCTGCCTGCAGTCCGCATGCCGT…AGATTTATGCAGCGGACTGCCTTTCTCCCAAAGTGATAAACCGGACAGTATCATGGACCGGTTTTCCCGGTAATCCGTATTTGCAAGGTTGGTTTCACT; site = the 11-nt target
Parameter: recombinant barcode read abundance (log10)

Residue Codes: CACAAACCTTGGGTTCTAACCTGTTGCAG (site AGATGTGCTAG)
Value: 0.054
//
Residue Codes: CTGCGGTCTTGGGTTCTAACCTGTTGCAT (site CTGCGGTCTAT)
Value: 1.7
//
Residue Codes: ACGATAACTTGGGTTCTAACCTGTTGCCA (site CTAGATTCTAT)
Value: 0.363
//
Residue Codes: AGCTGGGCTTGGGTTCTAACCTGTTGCCT (site ACCTGGGCTAG)
Value: 0.101
//
Residue Codes: GTGGGCTCTTGGGTTCTAACCTGTTGCCT (site CTGGGCTCTTG)
Value: 0.0529
//
Residue Codes: TCGAGTGCTTGGGTTCTAACCTGTTGCAG (site CTACTATCTAC)
Value: 0.0294
//
Residue Codes: GGGTCCACTTGGGTTCTAACCTGTTGCCT (site GGGTCCACTAT)
Value: 0.358
//
Residue Codes: TGTAATGCTTGGGTTCTAACCTGTTGCCT (site TGTAATCCTAG)
Value: 0.181
//
Residue Codes: CACTGGTCTTGGGTTCTAACCTGTTGCCT (site CACTGCTCTAG)
Value: 0.0756
//
Residue Codes: TTAACTACTTGGGTTCTAACCTGTTGCTT (site TTAACTACTGA)
Value: 0.294
//
Residue Codes: TATGACGCTTGGGTTCTAACCTGTTGCCT (site TAAGACGCTAG)
Value: 0.261
